# measurementTarget: recombinant soluble homotrimeric HA of A/Indonesia/5/05 (H5N1) (Influenza A virus A/Indonesia/5/2005(H5N1))
# procedureSummary: HA microarray, BCC supernatant
# experimentalConditions: remark: other sources report otherwise
endpoint: Trimeric HA Binding: RLU

Example entries and their recorded answers appear below.
>>> reportedmeasurement("TCN-535 (5246_P19) (antibody, V domains shown) VH: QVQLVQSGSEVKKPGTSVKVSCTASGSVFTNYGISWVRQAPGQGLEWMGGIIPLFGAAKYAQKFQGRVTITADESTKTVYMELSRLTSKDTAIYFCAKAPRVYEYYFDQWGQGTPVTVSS VL: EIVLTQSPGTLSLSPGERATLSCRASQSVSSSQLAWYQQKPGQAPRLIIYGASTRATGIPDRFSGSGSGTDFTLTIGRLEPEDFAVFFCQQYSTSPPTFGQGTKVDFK")
"45600 RLU"
>>> reportedmeasurement("TCN-551 (5243_D01) (antibody, V domains shown) VH: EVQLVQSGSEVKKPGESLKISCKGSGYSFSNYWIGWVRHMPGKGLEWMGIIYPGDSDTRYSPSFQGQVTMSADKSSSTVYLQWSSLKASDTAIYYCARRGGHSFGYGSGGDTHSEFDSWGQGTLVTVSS VL: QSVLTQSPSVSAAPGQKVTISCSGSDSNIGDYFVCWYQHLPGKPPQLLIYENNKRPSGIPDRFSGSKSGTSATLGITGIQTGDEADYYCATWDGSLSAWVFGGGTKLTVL")
"53500 RLU"

Field: next binder
[in] Determine its reported Trimeric HA Binding: RLU: TCN-550 (5096_F06) (antibody, V domains shown) VH: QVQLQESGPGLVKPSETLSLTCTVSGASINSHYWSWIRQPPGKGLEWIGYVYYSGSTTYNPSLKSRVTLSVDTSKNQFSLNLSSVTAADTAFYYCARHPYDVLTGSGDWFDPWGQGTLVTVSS VL: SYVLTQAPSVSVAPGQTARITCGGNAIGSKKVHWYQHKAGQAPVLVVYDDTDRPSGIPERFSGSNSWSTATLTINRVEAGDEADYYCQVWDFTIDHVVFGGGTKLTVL
[out] 9100 RLU
